Measured IC50 accompanies every entry in the list below.
test.system: Sodium- and chloride-dependent glycine transporter 1 (Homo sapiens)
Sequence (P48067 whole entry): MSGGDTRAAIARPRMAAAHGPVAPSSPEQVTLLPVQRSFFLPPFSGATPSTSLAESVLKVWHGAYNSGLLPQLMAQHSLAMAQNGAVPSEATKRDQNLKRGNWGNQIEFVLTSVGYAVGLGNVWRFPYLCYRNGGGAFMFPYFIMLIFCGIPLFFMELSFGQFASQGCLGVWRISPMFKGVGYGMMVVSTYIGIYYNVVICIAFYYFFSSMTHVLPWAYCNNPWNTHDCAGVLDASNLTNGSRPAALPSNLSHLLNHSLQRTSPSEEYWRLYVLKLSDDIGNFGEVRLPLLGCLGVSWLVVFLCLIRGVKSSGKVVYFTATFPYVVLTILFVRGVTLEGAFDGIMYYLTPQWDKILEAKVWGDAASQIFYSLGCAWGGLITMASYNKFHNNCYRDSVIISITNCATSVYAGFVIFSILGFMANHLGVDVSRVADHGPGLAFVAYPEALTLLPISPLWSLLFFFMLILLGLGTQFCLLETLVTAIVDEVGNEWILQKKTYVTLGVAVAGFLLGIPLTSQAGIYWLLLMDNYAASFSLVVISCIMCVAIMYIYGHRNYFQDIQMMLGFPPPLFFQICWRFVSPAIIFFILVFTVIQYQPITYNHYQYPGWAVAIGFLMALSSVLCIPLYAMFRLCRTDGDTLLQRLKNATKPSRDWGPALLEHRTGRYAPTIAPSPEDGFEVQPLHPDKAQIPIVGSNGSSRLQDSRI
method: Inhibition of uptake of [3H]-glycine into cells transfected with human GlyT-1b transporter

>  <compound>
CN(CC[C@@H](Oc1ccc(C(F)(F)F)cc1)c1ccccc1)CC(=O)O

>  <measurement.qualifier>
=

>  <IC50 [nM]>
320

$$$$
>  <compound>
COc1ccc(Sc2ccc(Cl)cc2N2CCN(CC(=O)O)C(C)C2)cc1 (centres undefined)

>  <measurement.qualifier>
=

>  <IC50 [nM]>
290

$$$$
>  <compound>
COc1ccc(Sc2ccccc2N2CCN(CC(=O)O)CC2)cc1

>  <measurement.qualifier>
>

>  <IC50 [nM]>
10000

$$$$
>  <compound>
CC1CN(c2ccccc2Sc2ccc(Cl)cc2)C(C)CN1CC(=O)O (centres undefined)

>  <measurement.qualifier>
=

>  <IC50 [nM]>
360

$$$$
>  <compound>
COc1ccc(Sc2ccccc2N2C[C@@H](C)N(CC(=O)O)C[C@@H]2C)cc1

>  <measurement.qualifier>
=

>  <IC50 [nM]>
160

$$$$
>  <compound>
COc1ccc(Sc2ccc(Cl)cc2N2CC(C)N(CC(=O)O)CC2C)cc1 (centres undefined)

>  <measurement.qualifier>
=

>  <IC50 [nM]>
1700

$$$$
>  <compound>
CC1CN(c2ccccc2Sc2ccccc2)C(C)CN1CC(=O)O (centres undefined)

>  <measurement.qualifier>
=

>  <IC50 [nM]>
2900

$$$$
>  <compound>
CC(=O)Nc1ccc(Sc2ccccc2N2CC(C)N(CC(=O)O)CC2C)cc1 (centres undefined)

>  <measurement.qualifier>
=

>  <IC50 [nM]>
22000

$$$$
>  <compound>
COc1ccc(Sc2ccccc2N2CCN(CC(=O)O)CC2C)cc1 (centres undefined)

>  <measurement.qualifier>
>

>  <IC50 [nM]>
10000

$$$$
>  <compound>
COc1ccc(Sc2ccccc2N2CC(C)N(CC(=O)O)CC2C)cc1 (centres undefined)

>  <measurement.qualifier>
=

>  <IC50 [nM]>
580

$$$$
>  <compound>
CC1CN(c2ccccc2Sc2ccc(F)cc2)C(C)CN1CC(=O)O (centres undefined)

>  <measurement.qualifier>
=

>  <IC50 [nM]>
1900

$$$$
>  <compound>
COc1ccc(Sc2ccc(C)cc2N2CCN(CC(=O)O)C(C)C2)cc1 (centres undefined)

>  <measurement.qualifier>
=

>  <IC50 [nM]>
1600

$$$$
>  <compound>
Cc1ccc(Sc2ccccc2N2CC(C)N(CC(=O)O)CC2C)cc1 (centres undefined)

>  <measurement.qualifier>
=

>  <IC50 [nM]>
550

$$$$
>  <compound>
COc1ccc(Sc2ccccc2N2CCN(CC(=O)O)C(C)C2)cc1 (centres undefined)

>  <measurement.qualifier>
=

>  <IC50 [nM]>
1700

$$$$
>  <compound>
COc1ccc(Sc2ccc(Cl)cc2N2CCN(CC(=O)O)[C@@H](C)C2)cc1

>  <measurement.qualifier>
=

>  <IC50 [nM]>
1400

$$$$
>  <compound>
COc1ccc(Sc2ccccc2N2C[C@H](C)N(CC(=O)O)C[C@@H]2C)cc1

>  <measurement.qualifier>
=

>  <IC50 [nM]>
18000

$$$$
>  <compound>
CC1CN(c2ccccc2Sc2ccc(-c3ccccc3)cc2)C(C)CN1CC(=O)O (centres undefined)

>  <measurement.qualifier>
>

>  <IC50 [nM]>
10000

$$$$
>  <compound>
CC1CN(c2ccccc2Sc2ccc(O)cc2)C(C)CN1CC(=O)O (centres undefined)

>  <measurement.qualifier>
=

>  <IC50 [nM]>
3600

$$$$
>  <compound>
COc1ccc(Sc2ccc(OC)cc2N2CC(C)N(CC(=O)O)CC2C)cc1 (centres undefined)

>  <measurement.qualifier>
>

>  <IC50 [nM]>
50000

$$$$
>  <compound>
COc1ccc(Sc2ccccc2N2C[C@@H](C)N(CC(=O)O)C[C@H]2C)cc1

>  <measurement.qualifier>
=

>  <IC50 [nM]>
16000

$$$$
>  <compound>
COc1ccc(Sc2ccccc2N2CCN(CC(=O)O)C(C)(C)C2)cc1

>  <measurement.qualifier>
=

>  <IC50 [nM]>
1500

$$$$
>  <compound>
COc1ccc(Sc2ccc(Cl)cc2N2CCN(CC(=O)O)[C@H](C)C2)cc1

>  <measurement.qualifier>
=

>  <IC50 [nM]>
150

$$$$
>  <compound>
COc1ccc(Sc2ccc(OC)cc2N2CCN(CC(=O)O)C(C)C2)cc1 (centres undefined)

>  <measurement.qualifier>
=

>  <IC50 [nM]>
4600

$$$$
>  <compound>
COc1ccc(Sc2ccccc2N2C[C@H](C)N(CC(=O)O)C[C@H]2C)cc1

>  <measurement.qualifier>
=

>  <IC50 [nM]>
53000

$$$$
